- Test system: MGMT CpG island
- Assay Name: Bisulfite sequencing (BiSEQ) of TA clones
- Assay type: cell-based, human
- Test Conditions: LN18 dCas9-DNMT3A-CD/sgRNA clones; Region 1 (sgRNA4) or Region 2 (sgRNA1, 2, 3)
Recorded Endpoint: location of methylated CpG sites

Substance	Result
5′-GGTGCGCACCGTTTGCGACT-3′ (guide (5'-GGTGCGCACCGTTTGCGACT-3'; as printed in the source, key not given here) [sgRNA1]	CpG 77, 81-89
5′-CTTTGCGTCCCGACGCCCGC-3′ (guide (5'-CTTTGCGTCCCGACGCCCGC-3'; as printed in the source, key not given here) [sgRNA3]	CpG 77, 81-89
5′-AGGCGCCCTCACTTCGCCGT-3′ (guide (5'-AGGCGCCCTCACTTCGCCGT-3'; as printed in the source, key not given here) [sgRNA2]	CpG 77, 81-89
